In this section we review reported T½ values for a set of binders.
EXPERIMENTAL SYSTEM: T1, mfPRLR.mmh (soluble monomeric macaca fascicularis PRLR) (macaca fascicularis)
T1 construct: soluble monomeric construct; also called macaca fascicularis (mf) PRLR.mmh
T1 chain: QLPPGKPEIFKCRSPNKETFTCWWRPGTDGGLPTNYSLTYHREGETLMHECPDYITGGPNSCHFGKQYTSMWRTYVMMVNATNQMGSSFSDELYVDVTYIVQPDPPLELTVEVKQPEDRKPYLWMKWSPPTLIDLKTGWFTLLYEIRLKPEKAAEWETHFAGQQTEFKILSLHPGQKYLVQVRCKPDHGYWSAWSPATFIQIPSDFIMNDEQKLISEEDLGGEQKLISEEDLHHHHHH
TEST: SPR, 37C, mAb capture
Method: Measurements were conducted on a T200 Biacore instrument. Kinetic association (kₐ) and dissociation (kd) rate constants were determined by processing and fitting the data to a 1:1 binding model using Scrubber 2.0 curve fitting software. Binding dissociation equilibrium constants (KD) and dissociative half-lives (t_{1/2}) were calculated from the kinetic rate constants as: KD (M)=kd/kₐ; and […].
Expressed in min, but write only the number.

Quick one: T½ for H1H6797P (antibody, human IgG1, V domains shown, human IgG1 Fc (H1H)) VH: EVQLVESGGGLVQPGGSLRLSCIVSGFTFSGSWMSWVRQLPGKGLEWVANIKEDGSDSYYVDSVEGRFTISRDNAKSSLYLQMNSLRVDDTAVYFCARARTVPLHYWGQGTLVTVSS VL: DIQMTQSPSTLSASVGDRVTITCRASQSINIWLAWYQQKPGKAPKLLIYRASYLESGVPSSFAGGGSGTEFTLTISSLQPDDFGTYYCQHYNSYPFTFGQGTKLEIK ? 1

And H1H6801P (antibody, human IgG1, V domains shown, human IgG1 Fc (H1H)) VH: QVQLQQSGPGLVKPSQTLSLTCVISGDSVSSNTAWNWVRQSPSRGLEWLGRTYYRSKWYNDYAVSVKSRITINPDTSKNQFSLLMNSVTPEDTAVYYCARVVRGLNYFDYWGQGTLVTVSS VL: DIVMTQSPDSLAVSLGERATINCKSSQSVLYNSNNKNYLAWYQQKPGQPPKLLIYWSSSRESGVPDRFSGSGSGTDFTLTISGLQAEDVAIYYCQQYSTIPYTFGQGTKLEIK ? 1

And H1H6966N (antibody, human IgG1, V domains shown, also called H2M6966N) VH: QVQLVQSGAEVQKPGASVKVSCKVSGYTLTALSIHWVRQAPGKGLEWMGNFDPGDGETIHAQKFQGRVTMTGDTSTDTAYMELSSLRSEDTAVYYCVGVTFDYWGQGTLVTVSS VL: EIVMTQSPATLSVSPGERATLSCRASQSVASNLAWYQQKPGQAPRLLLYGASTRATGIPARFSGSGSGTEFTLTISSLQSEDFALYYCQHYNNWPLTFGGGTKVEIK ? 9.6
